Below, pIC50 values reported for UniProt P37023 across several publications.
One number for each entry, as −log10 of the molar value.

Examples with answers:
1. O=c1[nH]cc(-c2c[nH]c3ccccc23)cc1-c1nc2cc(N3CCNCC3)ccc2[nH]1
5.46
2. CC#CCN1C[C@H]2C[C@@]2(c2ccc(-c3cnc(N)c(C(=O)N[C@H]4CC[C@H](O)CC4)c3)cc2)C1
6.77
3. Nc1ncc(-c2ccc([C@@]34C[C@@H]3CN(C3CCOCC3)C4)cc2)cc1C(=O)NC12CCC(O)(CC1)CC2
6.49

# return pIC50 for each item in the list
1. CN1CCN(C(=O)c2ccc(-c3cnc(N)c(C(=O)N[C@H]4CC[C@@H](O)CC4)c3)cc2)CC1
2. COCCCN1C(=O)Cc2cc(-c3cncc(-c4ccc(=O)n(C(C)C)c4)c3)ccc21
3. Nc1ncc(-c2ccc([C@]34C[C@H]3CN(CCCN3CCOCC3)C4)cc2)cc1C(=O)N[C@H]1CC[C@H](O)CC1

Result:
1. 6.05
2. 5.82
3. 7.09

CN1CCCN(c2ccc3[nH]c(-c4cc(-c5ccnc6[nH]ccc56)c[nH]c4=O)nc3c2)CC1 yielded pIC50 of 8.85

----------
Below, IC50 values reported for Activin receptor type-1-like (Homo sapiens, UniProt P37023) across several publications.

1) C[C@H](c1ccc(-c2cnc(N)c(C(=O)N[C@H]3CC[C@H](O)CC3)c2)cc1)N1CC2(COC2)C1
0.136 µM

# return IC50 for each item in the list
1. CC(C)n1cc(-c2cc(-c3ccc4c(c3)CC(=O)N4C)cnc2N)ccc1=O
2. O=c1[nH]cc(-c2ccc(F)c(CO)c2)cc1-c1nc2cc(N3CCCNCC3)ccc2[nH]1
3. C[C@]1(O)CC[C@H](NC(=O)c2cc(-c3ccc([C@]45C[C@H]4CN(C4CCC(F)(F)CC4)C5)cc3)cnc2N)CC1

Result:
1. 1.4 µM
2. 0.033 µM
3. 0.663 µM

----------
Below, pIC50 values reported for Activin receptor type-1-like (Homo sapiens) across several publications.
Give bare numbers, as −log10 of the molar value.

Examples with answers:
1) Nc1ncc(-c2ccc(OCCCN3CCCCC3)cc2)cc1C(=O)NC1CCCCC1
6.12
2) CC(C)(O)C12CC(NC(=O)c3cc(-c4ccc([C@@]56C[C@@H]5CN(C5CCOCC5)C6)cc4)cnc3N)(C1)C2
5.25
3) Nc1ncc(-c2ccc([C@]34C[C@H]3CN(CCN3CCOCC3)C4)cc2)cc1C(=O)N[C@H]1CC[C@H](O)CC1
6.85
4) COCCN1C[C@@H]2C[C@]2(c2ccc(-c3cnc(N)c(C(=O)N[C@H]4CC[C@H](O)CC4)c3)cc2)C1
6.89
5) CN1CCN(c2ccc3[nH]c(-c4cc(-c5cccnc5)c[nH]c4=O)nc3c2)CC1
5.26

# return pIC50 for each item in the list
1. C#CCN1C[C@@H]2C[C@]2(c2ccc(-c3cnc(N)c(C(=O)N[C@H]4CC[C@H](O)CC4)c3)cc2)C1
2. CC(C)n1nc(-c2cncc(-c3ccc4c(c3)CC(=O)N4C)c2)ccc1=O

Result:
1. 6.72
2. 6.17

----------
Below, IC50 values reported for Activin receptor type-1-like (Homo sapiens, UniProt P37023) across several publications.
Decision: IC50 beneath 200 nM gives 1 (yes); IC50 meeting or exceeding 200 nM gives 0 (no).

Examples from the recorded data:
1) CN1CCN(c2ccc3[nH]c(-c4cc(-c5ccnc6[nH]ccc56)c[nH]c4=O)nc3c2)CC1
1 (yes)
2) Nc1ncc(-c2ccc([C@]34C[C@H]3CN(C3CCOCC3)C4)cc2)cc1C(=O)NC12CC(CO)(C1)C2
0 (no)
3) CC(C)N1C[C@H]2C[C@@]2(c2ccc(-c3cnc(N)c(C(=O)N[C@H]4CC[C@](C)(O)CC4)c3)cc2)C1
0 (no)
4) CC(C)N1CCC(c2ccc(-c3cnc(N)c(C(=O)N[C@H]4CC[C@H](O)CC4)c3)cc2)C1 (stereo partly shown)
1 (yes)
5) CN1CCC(NC(=O)c2ccc3[nH]c(-c4cc(-c5ccncc5)c[nH]c4=O)nc3c2)CC1
0 (no)
6) CN1C(=O)Cc2cc(-c3cncc(-c4ccc(=O)n(CC(F)(F)F)c4)c3)ccc21
0 (no)

Query: Would you kindly verify if IC50 of CC(F)(F)CN1C[C@@H]2C[C@]2(c2ccc(-c3cnc(N)c(C(=O)N[C@H]4CC[C@H](O)CC4)c3)cc2)C1 is strictly less than 200 nM?
Result: 0 (no)
